Target: Aurora B (Homo sapiens, UniProt Q96GD4)
Construct: cell lysates from Jurkat cells (ATCC TIB-152) used; endogenous in cells
Sequence (Q96GD4 whole entry): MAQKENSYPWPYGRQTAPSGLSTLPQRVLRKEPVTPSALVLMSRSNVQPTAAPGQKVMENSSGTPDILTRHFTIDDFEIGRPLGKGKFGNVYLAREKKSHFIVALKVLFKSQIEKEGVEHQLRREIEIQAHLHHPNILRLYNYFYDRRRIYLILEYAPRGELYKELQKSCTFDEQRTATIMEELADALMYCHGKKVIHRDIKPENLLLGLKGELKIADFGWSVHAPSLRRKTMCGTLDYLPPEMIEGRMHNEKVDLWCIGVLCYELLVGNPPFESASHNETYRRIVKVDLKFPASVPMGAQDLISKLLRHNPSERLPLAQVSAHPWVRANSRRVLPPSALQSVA
Assay: Kinobeads assay, Aurora B
Conditions: lysate of pervanadate-treated Jurkat cells, read-out: Inhibition values (IC50) Aur B
Quick reference for IC50 among some compounds
RECORDED METRIC: IC50

{"columns": ["COMPOUND", "TARGET", "RECORDED METRIC", "RESULT"],
 "data": [
  ["Cn1cc(Nc2ncc3cnn(Cc4cccc(-c5cn[nH]c5)c4)c3n2)cn1 [Example 118]", "Aurora B (Homo sapiens, UniProt Q96GD4)", "IC50", "1000 to 10000 nM"],
  ["Cn1cc(Nc2ncc3cnn(Cc4cccc(N5CC6(COC6)C5)c4)c3n2)cn1 [Example 89]", "Aurora B (Homo sapiens, UniProt Q96GD4)", "IC50", "1000 to 10000 nM"],
  ["COC1CN(c2cccc(Cn3ncc4cnc(Nc5cnn(C)c5)nc43)c2)C1 [Example 65]", "Aurora B (Homo sapiens, UniProt Q96GD4)", "IC50", "1000 to 10000 nM"],
  ["Cn1cc(-c2cccc(Cn3ncc4cnc(Nc5cnn(CCO)c5)nc43)c2F)cn1 [Example 124]", "Aurora B (Homo sapiens, UniProt Q96GD4)", "IC50", "100 to 1000 nM"],
  ["Cn1cc(Nc2ncc3cnn(Cc4cc(F)cc(C(=O)N5CCNCC5)c4)c3n2)cn1 [Example 80]", "Aurora B (Homo sapiens, UniProt Q96GD4)", "IC50", "100 to 1000 nM"],
  ["O=C1COCCN1c1cccc(Cn2ncc3cnc(Nc4cnn(CCO)c4)nc32)c1F [Example 46]", "Aurora B (Homo sapiens, UniProt Q96GD4)", "IC50", "100 to 1000 nM"],
  ["Cn1cc(Nc2ncc3cnn(Cc4cc(N5CCOCC5)cc(F)c4F)c3n2)cn1 [Example 37]", "Aurora B (Homo sapiens, UniProt Q96GD4)", "IC50", "1000 to 10000 nM"],
  ["OCCn1cc(Nc2ncc3cnn(Cc4cccc(N5CCOCC5)c4)c3n2)cn1 [Example 5]", "Aurora B (Homo sapiens, UniProt Q96GD4)", "IC50", "100 to 1000 nM"],
  ["Cn1cc(Nc2ncc3cnn(Cc4cccc(N5CCC(=O)CC5)c4)c3n2)cn1 [Example 108]", "Aurora B (Homo sapiens, UniProt Q96GD4)", "IC50", "1000 to 10000 nM"],
  ["CNCCCn1cc(Nc2ncc3cnn(Cc4cc(F)cc(N5CCOCC5=O)c4)c3n2)cn1 [Example 99]", "Aurora B (Homo sapiens, UniProt Q96GD4)", "IC50", "< 100 nM"],
  ["O=C1COCCN1c1cc(F)cc(Cn2ncc3cnc(Nc4cnn(CCS(=O)(=O)NC5CC5)c4)nc32)c1 [Example 106]", "Aurora B (Homo sapiens, UniProt Q96GD4)", "IC50", "100 to 1000 nM"],
  ["Cn1cc(Nc2ncc3cnn(Cc4cc(-c5cnn(C)c5)cc(F)c4F)c3n2)cn1 [Example 126]", "Aurora B (Homo sapiens, UniProt Q96GD4)", "IC50", "≥ 10000 nM"],
  ["O=C1COCCN1c1cc(F)cc(Cn2ncc3cnc(Nc4cnn(C5CCNCC5)c4)nc32)c1 [Example 102]", "Aurora B (Homo sapiens, UniProt Q96GD4)", "IC50", "100 to 1000 nM"],
  ["CN(C)CC(F)Cn1cc(Nc2ncc3cnn(Cc4cc(F)cc(N5CCOCC5=O)c4)c3n2)cn1 (centres unmarked) [Example 97]", "Aurora B (Homo sapiens, UniProt Q96GD4)", "IC50", "1000 to 10000 nM"],
  ["Cn1cc(Nc2ncc3cnn(Cc4cccc(N5CCOCC5=O)c4)c3n2)cn1 [Example 27]", "Aurora B (Homo sapiens, UniProt Q96GD4)", "IC50", "100 to 1000 nM"],
  ["CN(C)CCCn1cc(Nc2ncc3cnn(Cc4cccc(N5CCOCC5=O)c4)c3n2)cn1 [Example 28]", "Aurora B (Homo sapiens, UniProt Q96GD4)", "IC50", "100 to 1000 nM"],
  ["Cn1cc(Nc2ncc3cnn(Cc4cc(N5CCNCC5=O)cc(F)c4F)c3n2)cn1 [Example 71]", "Aurora B (Homo sapiens, UniProt Q96GD4)", "IC50", "100 to 1000 nM"],
  ["Cn1cc(Nc2ncc3cnn(Cc4cccc(C(=O)N5CCOCC5)c4)c3n2)cn1 [Example 6]", "Aurora B (Homo sapiens, UniProt Q96GD4)", "IC50", "1000 to 10000 nM"],
  ["CNC(=O)Cn1cc(Nc2ncc3cnn(Cc4cc(F)cc(N5CCOCC5=O)c4)c3n2)cn1 [Example 68]", "Aurora B (Homo sapiens, UniProt Q96GD4)", "IC50", "100 to 1000 nM"],
  ["CCCn1cc(-c2cccc(Cn3ncc4cnc(Nc5cnn(C)c5)nc43)c2)cn1 [Example 119]", "Aurora B (Homo sapiens, UniProt Q96GD4)", "IC50", "1000 to 10000 nM"],
  ["O=C1COCCN1c1cc(F)cc(Cn2ncc3cnc(Nc4cnn(CCO)c4)nc32)c1 [Example 58]", "Aurora B (Homo sapiens, UniProt Q96GD4)", "IC50", "100 to 1000 nM"],
  ["COC1CCN(c2cccc(Cn3ncc4cnc(Nc5cnn(C)c5)nc43)c2)CC1 [Example 77]", "Aurora B (Homo sapiens, UniProt Q96GD4)", "IC50", "100 to 1000 nM"],
  ["Cn1cc(Nc2ncc3cnn(Cc4c(F)c(F)cc(N5CCOCC5)c4F)c3n2)cn1 [Example 17]", "Aurora B (Homo sapiens, UniProt Q96GD4)", "IC50", "100 to 1000 nM"],
  ["Cn1cc(Nc2ncc3cnn(Cc4c(F)c(F)cc(C(=O)N5CCOCC5)c4F)c3n2)cn1 [Example 110]", "Aurora B (Homo sapiens, UniProt Q96GD4)", "IC50", "100 to 1000 nM"],
  ["O=C1COCCN1c1cc(F)c(F)c(Cn2ncc3cnc(Nc4cnn(CCO)c4)nc32)c1 [Example 59]", "Aurora B (Homo sapiens, UniProt Q96GD4)", "IC50", "100 to 1000 nM"],
  ["c1cc(Cn2ncc3cnc(Nc4cnn(CC5CCNC5)c4)nc32)cc(N2CCOCC2)c1 (centres unmarked) [Example 60]", "Aurora B (Homo sapiens, UniProt Q96GD4)", "IC50", "1000 to 10000 nM"]
]}

---

Molecular target: Aurora B (Homo sapiens)
Construct: cell lysates from Jurkat cells (ATCC TIB-152) used; endogenous in cells; host or cells: Jurkat cells (ATCC TIB-152), treated with pervanadate
Assay: Kinobeads assay, Aurora B
Type: binding
Quick reference for JAK3/AurB Fold Selectivity among some compounds
RECORDED METRIC: JAK3/AurB Fold Selectivity

{"columns": ["COMPOUND", "TARGET", "RESULT"],
 "data": [
  ["O=C1COCCN1c1cc(F)cc(Cn2ncc3cnc(Nc4cnn(CC5CCNC5)c4)nc32)c1 (stereo not drawn)", "Aurora B (Homo sapiens)", "10-50 Fold"],
  ["Cn1cc(Nc2ncc3cnn(Cc4cccc(N5CCCCC5)c4)c3n2)cn1", "Aurora B (Homo sapiens)", "10-50 Fold"],
  ["Cn1cc(Nc2ncc3cnn(Cc4cccc(N5CCOCC5=O)c4F)c3n2)cn1", "Aurora B (Homo sapiens)", "10-50 Fold"],
  ["OCCCn1cc(Nc2ncc3cnn(Cc4cccc(N5CCOCC5)c4)c3n2)cn1", "Aurora B (Homo sapiens)", ">50 Fold"],
  ["Cn1cc(Nc2ncc3cnn(Cc4c(F)ccc(N5CCNCC5=O)c4F)c3n2)cn1", "Aurora B (Homo sapiens)", "3-10 Fold"],
  ["CN1CCN(c2cccc(Cn3ncc4cnc(Nc5cnn(C)c5)nc43)c2)CC1", "Aurora B (Homo sapiens)", "10-50 Fold"]
]}

---

Biological target: Aurora B (Homo sapiens, UniProt Q96GD4)
Construct: cell lysates from Jurkat cells (ATCC TIB-152) used; endogenous in cells; host or cells: Jurkat cells (ATCC TIB-152), treated with pervanadate
Assay: Kinobeads assay, Aurora B
Assay type: binding
Description: The compounds of the present invention as described in the previous examples were tested in a Kinobeads™ assay as described for ZAP-70 (WO-A 2007/137867). […] Bound proteins were then eluted and the presence of JAK2 and JAK3 was detected and quantified using specific antibodies in a dot blot procedure and the Odyssey infrared detection system. Dose response curves for individual kinases were generated and IC50 values calculated. […]
Quick reference for JAK3/AurB Fold Selectivity among some compounds

{"columns": ["CPD SMILES", "JAK3/AurB Fold Selectivity"],
 "data": [
  ["O=C1CNCCN1c1cccc(Cn2ncc3cnc(Nc4cnn(CCO)c4)nc32)c1", "10-50 Fold"],
  ["CN(C)C(=O)CCn1cc(Nc2ncc3cnn(Cc4cccc(N5CCOCC5)c4)c3n2)cn1", "10-50 Fold"],
  ["CN(C)CC1(Cn2cc(Nc3ncc4cnn(Cc5cccc(N6CCOCC6)c5)c4n3)cn2)COC1", ">50 Fold"]
]}
